# Test system: UACC-62 melanoma
# experiment-description: NCI-60 one-dose screen, 48 h (100 = growth as untreated, 0 = no growth, -100 = all killed)
# experimental-context: 10 µM unless noted
Compounds without any hit were thinned out: in the full panel of roughly 83,000, 20% have a hit.
Returns: string. Value is condition met if measured growth is below 70%, and condition not met if it is greater than or equal to it.

# molecule, assigned-category
rows = [
    ("C=C(C)C1CCC2(C)OC2C1 (centres undefined)", "condition not met"),
]

Would you kindly look at the next entry?
Query: Is the reported growth for c1ccc(Cc2nn3cc(-c4ccccc4)nc3s2)cc1 strictly below 70%?
Result: condition not met
